# assay_details: Particle size analysis (PSD), Malvern Mastersizer
# Format: physicochemical
# measurement_parameters: co-milled with 2.0 % w/w magnesium stearate
# Protocol: A 2 g sample of anhydrous crystalline ASM-024 was taken and fed through the Sturtevant Qualification Micronizer. The mill has a 2 inch chamber, and was operated at 80 psig grinding pressure and 90 psig feed pressure. Milled API was recovered from the exhaust filter sock and physically characterized. Particle size analysis was performed using a Malvern Mastersizer with a Small Sample Presentation Unit. The dispersant used was ethyl acetate with 2 g of SPAN 85 per liter. […]
measurement_kind: d10
Just the number plus its unit, please.

d10 measured on `CC[N+]1(CC)CCCN(c2ccccc2)CC1` = 0.91 µm
